# RUN_DESCRIPTION: In vivo microdialysis pharmacokinetics of LVFX without transporter inhibitors
# Design: species or system rat
# CONDITION_PARAMETERS: rat, blood (microdialysate, unbound), iv, 50 mg/kg, blood; Group 4: LVFX 50 mg/kg alone; mean ± SD, n=3
EXPERIMENTAL_ENDPOINT: MRT (h)
Output spec: scalar in h, unitless text.

Given C[C@H]1COc2c(N3CCN(C)CC3)c(F)cc3c(=O)c(C(=O)O)cn1c23 [LVFX, Levofloxacin] , state its recorded MRT.
1.44

* * *

# RUN_DESCRIPTION: In vivo microdialysis pharmacokinetics of LVFX without transporter inhibitors
# Parameters: species or system rat
# CONDITION_PARAMETERS: rat, blood (microdialysate, unbound), iv, 50 mg/kg, blood; Group 2: 1.25% NaHCO3 solution + LVFX 50 mg/kg; mean ± SD, n=3
EXPERIMENTAL_ENDPOINT: half-life (min)
Numbers only; they are read as min.

Entry C[C@H]1COc2c(N3CCN(C)CC3)c(F)cc3c(=O)c(C(=O)O)cn1c23 : reported half-life = ?
50.5

* * *

# System: Organic anion transporters (OATs)
# RUN_DESCRIPTION: In vivo microdialysis pharmacokinetics of LVFX with OATs inhibitor probenecid
# Parameters: species or system rat
# CONDITION_PARAMETERS: rat, intravenous, with Probenecid 50 mg/kg i.p., 30 min before LVFX; blood; PRO group, Probenecid 50 mg/kg i.p. + LVFX 50 mg/kg; mean ± SD, N=5
EXPERIMENTAL_ENDPOINT: MRT (h)
Quick reminder: number only, in h, skip the unit.

GET /values?readout=MRT&item= C[C@H]1COc2c(N3CCN(C)CC3)c(F)cc3c(=O)c(C(=O)O)cn1c23
1.58

* * *

# RUN_DESCRIPTION: In vivo microdialysis pharmacokinetics of LVFX without transporter inhibitors
# Design: species or system rat
# CONDITION_PARAMETERS: rat, brain ECF, iv, 50 mg/kg, brain ECF; Group 1: vehicle solution of Tariquidar/Ko143 + LVFX 50 mg/kg; mean ± SD, n=3
EXPERIMENTAL_ENDPOINT: Cmax (ng/mL)
Respond numerically; units are ng/mL and should not be typed.

For the compound C[C@H]1COc2c(N3CCN(C)CC3)c(F)cc3c(=O)c(C(=O)O)cn1c23 , what Cmax is on record?
2920

* * *

# RUN_DESCRIPTION: In vivo microdialysis pharmacokinetics of LVFX without transporter inhibitors
# Set-up: species or system rat
# CONDITION_PARAMETERS: rat, brain ECF, iv, 50 mg/kg, brain ECF; Group 4: LVFX 50 mg/kg alone; mean ± SD, n=3
EXPERIMENTAL_ENDPOINT: MRT (h)
All answers are understood in h, so give the number only.

What does the data say about its MRT? Entry: C[C@H]1COc2c(N3CCN(C)CC3)c(F)cc3c(=O)c(C(=O)O)cn1c23
1.35

* * *

# TARGET: Breast cancer resistance protein (BCRP) (Rattus norvegicus)
# Construct: from tissue; host or cells: living rat (blood-brain barrier, choroid plexus)
# Sequence (Q80W57 1-657): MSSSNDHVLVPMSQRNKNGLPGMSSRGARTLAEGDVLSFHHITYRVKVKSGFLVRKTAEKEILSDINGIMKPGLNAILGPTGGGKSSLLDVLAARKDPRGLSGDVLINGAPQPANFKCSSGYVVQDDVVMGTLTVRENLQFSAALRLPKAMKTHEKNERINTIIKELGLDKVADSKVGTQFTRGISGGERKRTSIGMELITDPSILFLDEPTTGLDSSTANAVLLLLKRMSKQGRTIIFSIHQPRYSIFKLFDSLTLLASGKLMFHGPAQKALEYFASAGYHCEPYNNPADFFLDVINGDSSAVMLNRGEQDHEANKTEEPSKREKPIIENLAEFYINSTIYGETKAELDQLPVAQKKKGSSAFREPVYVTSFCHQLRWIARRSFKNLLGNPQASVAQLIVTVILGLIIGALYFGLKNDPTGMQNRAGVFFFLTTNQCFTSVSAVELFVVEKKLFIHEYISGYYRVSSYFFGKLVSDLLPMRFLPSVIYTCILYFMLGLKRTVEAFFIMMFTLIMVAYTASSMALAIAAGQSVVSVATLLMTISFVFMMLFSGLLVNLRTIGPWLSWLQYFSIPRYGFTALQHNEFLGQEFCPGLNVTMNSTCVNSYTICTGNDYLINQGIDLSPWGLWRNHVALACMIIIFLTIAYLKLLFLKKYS
# RUN_DESCRIPTION: In vivo microdialysis pharmacokinetics of LVFX with BCRP inhibitor Ko143
# CONDITION_PARAMETERS: intravenous, with Ko143 15 mg/kg i.p., 30 min before LVFX, blood, Ko143 group, Ko143 15 mg/kg i.p. + LVFX 50 mg/kg, mean ± SD, N=5
EXPERIMENTAL_ENDPOINT: Cmax (ng/mL)
Field: numeric (ng/mL). Do not append units.

Provide value of Cmax for this record tested with Breast cancer resistance protein (BCRP) (Rattus norvegicus): C[C@H]1COc2c(N3CCN(C)CC3)c(F)cc3c(=O)c(C(=O)O)cn1c23 [LVFX, Levofloxacin]
11000

* * *

# Test system: P-glycoprotein (P-gp)
# RUN_DESCRIPTION: In vivo microdialysis pharmacokinetics of LVFX with P-gp inhibitor Tariquidar
# Design: species or system rat
# CONDITION_PARAMETERS: rat, intravenous, with Tariquidar 8 mg/kg i.p., 30 min before LVFX; blood; TAR group, Tariquidar 8 mg/kg i.p. + LVFX 50 mg/kg; mean ± SD, N=5
EXPERIMENTAL_ENDPOINT: AUC(0-inf) (ng·h/mL)
Report as a plain number; the unit ng·h/mL is understood.

Identify the measured AUC(0-inf) of C[C@H]1COc2c(N3CCN(C)CC3)c(F)cc3c(=O)c(C(=O)O)cn1c23 for P-glycoprotein (P-gp).
11800

* * *

# System: Multidrug resistance-associated proteins (MRPs)
# RUN_DESCRIPTION: In vivo microdialysis pharmacokinetics of LVFX with MRPs inhibitor MK571
# Set-up: species or system rat
# CONDITION_PARAMETERS: rat, CSF (lateral ventricle microdialysate, unbound), intravenous, with MK571 20 mg/kg i.p.; CSF; MK571 group, MK571 20 mg/kg i.p. + LVFX 50 mg/kg; mean ± SD, N=5
EXPERIMENTAL_ENDPOINT: AUC(0-inf) (ng·h/mL)
Reply with just the number (in ng·h/mL).

Fill in the blank: the reported AUC(0-inf) of C[C@H]1COc2c(N3CCN(C)CC3)c(F)cc3c(=O)c(C(=O)O)cn1c23 is ____.
5860

* * *

# Test system: Multidrug resistance-associated proteins (MRPs)
# RUN_DESCRIPTION: In vivo microdialysis pharmacokinetics of LVFX with MRPs inhibitor MK571
# Design: species or system rat
# CONDITION_PARAMETERS: rat, intravenous, with MK571 20 mg/kg i.p., 30 min before LVFX; blood; MK571 group, MK571 20 mg/kg i.p. + LVFX 50 mg/kg; N=5
EXPERIMENTAL_ENDPOINT: Tmax (min)
Enter your answer as a number in min; do not include the unit.

Return reported Tmax; argument: C[C@H]1COc2c(N3CCN(C)CC3)c(F)cc3c(=O)c(C(=O)O)cn1c23
15

* * *

# System: Multidrug resistance-associated proteins (MRPs)
# RUN_DESCRIPTION: In vivo microdialysis pharmacokinetics of LVFX with MRPs inhibitor MK571
# Parameters: species or system rat
# CONDITION_PARAMETERS: rat, brain ECF (hippocampal microdialysate, unbound), intravenous, with MK571 20 mg/kg i.p., 30 min before LVFX; brain ECF; MK571 group, MK571 20 mg/kg i.p. + LVFX 50 mg/kg; mean ± SD, N=5
# Protocol: On the day of surgery, rats were anesthetized using inhaled isoflurane via a facemask. The rats were placed in a stereotaxic frame (Gene&I), and the body temperature was maintained with a homoeothermic blanket set at 37°C. A midline incision was made to expose the skull. […]
EXPERIMENTAL_ENDPOINT: AUC(0-inf) (ng·h/mL)
Express your answer in ng·h/mL, writing the number without its unit.

Record lookup: for Multidrug resistance-associated proteins (MRPs), what AUC(0-inf) belongs to C[C@H]1COc2c(N3CCN(C)CC3)c(F)cc3c(=O)c(C(=O)O)cn1c23 [LVFX, Levofloxacin] ?
5630

* * *

# RUN_DESCRIPTION: In vivo microdialysis pharmacokinetics of LVFX without transporter inhibitors
# Set-up: species or system rat
# CONDITION_PARAMETERS: rat, hippocampal brain ECF (microdialysate, unbound), iv; hippocampal brain ECF; control group, vehicle + LVFX 50 mg/kg tail vein; N=12
EXPERIMENTAL_ENDPOINT: Tmax
# include the unit after the value

For the compound C[C@H]1COc2c(N3CCN(C)CC3)c(F)cc3c(=O)c(C(=O)O)cn1c23 , what Tmax is on record?
15 min
